The measurements presented in this section are drawn from patent US20200247855A1.

Listing of entries alongside the reported pKd.
Target: T1, CCL3_HUMAN (Homo sapiens, UniProt P10147)
T1 sequence (P10147 24-92): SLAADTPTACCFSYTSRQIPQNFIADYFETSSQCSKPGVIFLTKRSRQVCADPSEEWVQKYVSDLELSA
Assay: Biolayer interferometry (BLI) binding
pKd: −log10 of the molar value.

# Molecule, pKd
data = [
    ("P467_RHIPU: tick CKBP (evasin), Rhipicephalus pulchellus; RPU-01 stated identical (protein, listed as Rhipicephalus pulchellus) AEKSLDSDSSGEDYELWTQGCPFLVAENRTGFGTTVSCQHNCNGAIEKVPEGEPCYTIGEDGLGRMKLNLPYNCSLGECSGGVCVPNGRSDVCFKRTWEENNKAMA", 9.44),
    ("P1180_AMBTR: tick CKBP, Amblyomma triste (protein, Amblyomma triste) EEPKDGYDYTEGCPFVVLGNGTHAKPAGCSHLCNGAPETLDDNMECYNVTEEVAKRMTPDIPYTCWLGWCSKGECKRDNRTEVCYRGSERE", 8.96),
    ("P672_RHIPU: tick CKBP, Rhipicephalus pulchellus (protein, listed as Rhipicephalus pulchellus) VCEVSEQEGVGEDNATEDEDYEDFFKPVTCYFANSTVGPLRPPNCTVVCTNNTAWWNDTKSDGGHCYSEYRPEKRTHSREIYNCTIGVCGNGTCIANHTYADCW", 8.59),
    ("P546_AMBCA: tick CKBP, Amblyomma cajennense (protein, Amblyomma cajennense) ENTQQEEEDYDYGTDTCPFPVLANKTNKAKFVGCHQKCNGGDQKLTDGTACYVVERKVWDRMTPMLWYSCPLGECKNGVCEDLRKKEECRKGNGEEK", 7.82),
    ("P983_AMBPA: tick CKBP; named P983_AMBCA in Table 1 (protein, Amblyomma cajennense) EDTGTEDDFDYGNTGCPFPVLGNYKSNMTKPVGCKNKCGSGYEVLNDTTPCYVIDQKVFNNMVPLRQYSKCPLGFCENGECKPNDQAEDCYKGREEQK", 8.46),
    ("P1181_AMBMA: tick CKBP, Amblyomma maculatum (protein, listed as Amblyomma maculatum) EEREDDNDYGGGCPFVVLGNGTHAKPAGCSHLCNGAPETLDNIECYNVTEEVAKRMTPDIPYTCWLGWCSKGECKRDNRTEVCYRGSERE", 8.66),
    ("P1182_AMBMA: tick CKBP, Amblyomma maculatum (protein, listed as Amblyomma maculatum) EPKDDNDYGGGCPFVVLGNGTHAKPAGCSHLCNGAPETLDNIECYNVTEEVAKRMTPGIPYACWLGWCNKGECKRGNRTEVCYRGSEEE", 8.27),
]
